# Target under test: P-gp (Homo sapiens)
# Construct: expressed in transfected cells; host or cells: MDCK-MDR1 cells (canine kidney cells)
# Protocol description: MDCK-MDR1 monolayer transport assay
# Type: cell-based
# Applied conditions: dog
Measured endpoint: Papp A→B at 90 min, 1 μM

Compound structure	Test value
CC[C@]1(O)C[C@H]2CN(CCc3c([nH]c4ccccc34)[C@@](C(=O)OC)(c3cc4c(cc3OC)N(C=O)[C@H]3[C@@](O)(C(=O)OC)[C@H](OC(C)=O)[C@]5(CC)C=CCN6CC[C@]43[C@@H]65)C2)C1	0.32 ×10⁻⁶ cm/s

###

# Target under test: P-gp (Homo sapiens, UniProt P08183)
# Construct: expressed in transfected cells; host or cells: MDCK-MDR1 cells (canine kidney cells)
# Sequence (P08183 whole entry): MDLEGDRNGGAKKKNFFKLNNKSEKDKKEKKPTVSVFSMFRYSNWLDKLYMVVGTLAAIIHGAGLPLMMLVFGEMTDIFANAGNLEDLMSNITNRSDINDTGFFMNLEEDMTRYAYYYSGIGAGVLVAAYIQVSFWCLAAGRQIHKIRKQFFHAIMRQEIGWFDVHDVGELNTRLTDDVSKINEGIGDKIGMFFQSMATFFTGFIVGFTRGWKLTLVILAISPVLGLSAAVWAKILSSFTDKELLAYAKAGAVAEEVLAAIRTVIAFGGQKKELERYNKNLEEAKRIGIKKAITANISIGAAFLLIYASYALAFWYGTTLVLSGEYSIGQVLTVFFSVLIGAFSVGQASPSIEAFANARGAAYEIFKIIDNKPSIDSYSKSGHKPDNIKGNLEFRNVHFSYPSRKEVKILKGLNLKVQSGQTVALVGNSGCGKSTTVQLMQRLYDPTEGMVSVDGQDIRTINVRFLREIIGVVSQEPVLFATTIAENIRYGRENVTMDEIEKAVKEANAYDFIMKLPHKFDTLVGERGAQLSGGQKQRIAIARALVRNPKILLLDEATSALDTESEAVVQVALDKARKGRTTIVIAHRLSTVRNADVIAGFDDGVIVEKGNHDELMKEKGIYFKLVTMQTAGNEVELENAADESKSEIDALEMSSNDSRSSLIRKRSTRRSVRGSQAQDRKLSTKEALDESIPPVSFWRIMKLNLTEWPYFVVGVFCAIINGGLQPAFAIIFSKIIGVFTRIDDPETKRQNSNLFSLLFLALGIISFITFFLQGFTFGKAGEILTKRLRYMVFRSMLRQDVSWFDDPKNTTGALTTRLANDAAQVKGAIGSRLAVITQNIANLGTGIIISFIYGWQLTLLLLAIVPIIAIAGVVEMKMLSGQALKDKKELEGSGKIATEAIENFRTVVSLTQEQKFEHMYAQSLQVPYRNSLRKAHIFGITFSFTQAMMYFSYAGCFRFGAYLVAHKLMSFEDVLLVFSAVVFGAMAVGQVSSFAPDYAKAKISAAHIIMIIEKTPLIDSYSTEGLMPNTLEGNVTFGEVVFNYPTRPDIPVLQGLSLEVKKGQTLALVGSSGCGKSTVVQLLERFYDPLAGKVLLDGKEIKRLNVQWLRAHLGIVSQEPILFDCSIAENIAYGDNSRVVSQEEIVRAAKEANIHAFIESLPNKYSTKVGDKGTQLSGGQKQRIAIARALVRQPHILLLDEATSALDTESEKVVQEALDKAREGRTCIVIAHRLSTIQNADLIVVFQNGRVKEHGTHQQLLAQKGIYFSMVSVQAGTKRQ
# Protocol description: MDCK-MDR1 monolayer transport assay
# Assay type: cell-based
# Applied conditions: dog

Compound structure	Target under test	Papp B→A at 90 min, 1 μM, ×10⁻⁶ cm/s
CC[C@]1(O)C[C@H]2CN(CCc3c([nH]c4ccccc34)[C@@](C(=O)OC)(c3cc4c(cc3OC)N(C=O)[C@H]3[C@@](O)(C(=O)OC)[C@H](OC(C)=O)[C@]5(CC)C=CCN6CC[C@]43[C@@H]65)C2)C1	P-gp (Homo sapiens, UniProt P08183)	1.99
